TARGET_OR_SYSTEM: 5-HT2C receptor (Homo sapiens)
Construct: host or cells: U2OS
Sequence (P28335 33-458): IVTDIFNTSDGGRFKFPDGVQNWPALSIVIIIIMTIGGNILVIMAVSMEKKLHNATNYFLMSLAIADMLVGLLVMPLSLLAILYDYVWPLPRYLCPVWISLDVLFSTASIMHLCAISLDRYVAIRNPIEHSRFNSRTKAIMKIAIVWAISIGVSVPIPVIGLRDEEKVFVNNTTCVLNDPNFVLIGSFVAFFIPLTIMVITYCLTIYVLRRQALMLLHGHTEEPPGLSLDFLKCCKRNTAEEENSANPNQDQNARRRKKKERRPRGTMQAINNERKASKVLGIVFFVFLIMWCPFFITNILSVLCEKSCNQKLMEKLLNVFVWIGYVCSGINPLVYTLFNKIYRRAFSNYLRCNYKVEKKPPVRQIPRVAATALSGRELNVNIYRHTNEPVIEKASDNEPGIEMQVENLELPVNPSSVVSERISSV
Sequence (P32121 whole entry partner): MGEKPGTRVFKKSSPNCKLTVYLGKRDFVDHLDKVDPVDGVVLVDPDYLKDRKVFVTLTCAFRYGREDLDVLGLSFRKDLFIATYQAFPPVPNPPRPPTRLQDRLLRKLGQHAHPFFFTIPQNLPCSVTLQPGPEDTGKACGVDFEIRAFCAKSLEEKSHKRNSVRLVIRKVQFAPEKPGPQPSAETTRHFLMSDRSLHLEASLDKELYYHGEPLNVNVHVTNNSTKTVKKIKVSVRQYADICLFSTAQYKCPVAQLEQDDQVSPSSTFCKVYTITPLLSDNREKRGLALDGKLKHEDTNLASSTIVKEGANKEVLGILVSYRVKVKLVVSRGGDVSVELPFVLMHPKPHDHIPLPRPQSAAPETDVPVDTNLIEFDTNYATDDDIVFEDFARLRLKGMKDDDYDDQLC
TEST_DETAILS: Human 5-HT2C functional assay (beta-arrestin2 recruitment, U2OS_HTR2C_β-Arrestin cells)
Assay type: cell-based
CONDITION_SET: relative efficacy vs response to 10 μM 5-HT or maximal 5-HT effect (100%)
Experimental: The functional activity of compounds of formula I was assayed by incubation with U2OS_HTR2C_β-Arrestin cells (DiscoverX, 93-0289C3) to induce beta-arrestin2 recruitment to the 5-HT2C receptor. […] The enzyme complementation results in enzyme activity, which is measured following the termination of the agonist incubation using DiscoveRx's detection reagent, which contains a chemiluminescent substrate which produces a high intensity signal. […]
Where a name gives a salt, the structure may show the parent alone.
READOUT_TYPE: Emax

COc1nc(C2CCCCC2)c(F)cc1CNC(=O)[C@@H]1CCCN1    > 70%
COc1nc(OCC2CC(F)(F)C2(F)F)c(F)cc1CNC(=O)[C@@H]1CCCN1 (some centres unmarked)    > 70%
COc1nc(NC2CCCCC2)c(F)cc1CNC(=O)[C@@H]1CCCN1    > 70%

-- ask Quick check: Emax of COc1nc(N2CCC(CC(F)(F)F)C2)c(F)cc1CNC(=O)[C@@H]1CCCN1 (some centres unmarked) ?
-- reply > 70%

-- ask Quick check: Emax of `COc1nc(OC[C@H]2CCC(F)(F)C2)c(F)cc1CNC(=O)[C@@H]1CCCN1C` ?
-- reply 50 to 70%

-- ask Quick check: Emax of COc1nc(OC2CC(F)(F)C2(F)F)c(F)cc1CNC(=O)[C@@H]1CCCN1 (some centres unmarked) ?
-- reply > 70%

-- ask Quick check: Emax of COc1nc(OCC2CC3C(C2)C3(F)F)c(F)cc1CNC(=O)[C@@H]1CCCN1 (some centres unmarked) ?
-- reply > 70%

-- ask Quick check: Emax of `COc1nc(N2CCC(F)(F)C2)c(F)cc1CNC(=O)[C@@H]1CCCN1` ?
-- reply > 70%

-- ask Quick check: Emax of COc1nc(NC2CCC2C(F)(F)F)c(F)cc1CNC(=O)[C@@H]1CCCN1 (some centres unmarked) ?
-- reply > 70%

-- ask Quick check: Emax of COc1nc(OCC2CC2(F)F)c(F)cc1CN(C)C(=O)[C@@H]1CCCN1 (some centres unmarked) [Example 77, Hydrochloride] ?
-- reply > 70%

-- ask Quick check: Emax of COc1nc(OC2CC(F)(F)C2)c(F)cc1CN(C)C(=O)[C@@H]1CCCN1 [Example 78, Hydrochloride] ?
-- reply > 70%

-- ask Quick check: Emax of COc1nc(N2CCCC(C(F)(F)F)C2)c(F)cc1CNC(=O)[C@@H]1CCCN1 (some centres unmarked) ?
-- reply > 70%

-- ask Quick check: Emax of COc1nc(OCC2CC(F)(F)C2)c(F)cc1CNC(=O)[C@@H]1CCCN1C [Example 92, Hydrochloride] ?
-- reply > 70%

-- ask Quick check: Emax of COc1nc(N2CCC(C(F)(F)F)C2)c(F)cc1CNC(=O)[C@@H]1CCCN1 (some centres unmarked) ?
-- reply > 70%

-- ask Quick check: Emax of COc1nc(OC2CCC(OC(F)F)CC2)c(F)cc1CNC(=O)[C@@H]1CCCN1 (some centres unmarked) ?
-- reply > 70%
